- test.target: KRAS G12V (Homo sapiens, UniProt P01116+P62937, G12V)
- Sequence (P01116 1-169 isoform P01116-2 G12V limits assumed): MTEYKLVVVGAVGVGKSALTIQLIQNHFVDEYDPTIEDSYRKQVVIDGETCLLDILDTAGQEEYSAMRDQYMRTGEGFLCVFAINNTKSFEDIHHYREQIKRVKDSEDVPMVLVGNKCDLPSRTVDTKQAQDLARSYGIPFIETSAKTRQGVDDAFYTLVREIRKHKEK
- Sequence (P62937 whole entry): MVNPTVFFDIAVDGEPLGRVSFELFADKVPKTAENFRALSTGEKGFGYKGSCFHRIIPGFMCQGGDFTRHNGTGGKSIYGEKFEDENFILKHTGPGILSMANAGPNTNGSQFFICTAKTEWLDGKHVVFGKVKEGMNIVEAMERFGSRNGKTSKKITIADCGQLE
- assay.name: Ras-Raf disruption / FRET / MOA assay (BRAF RBD)
- Type: biochemical
- condition.notes: Ras-Raf disruption, with Cyclophilin A; read-out: KRAS G12V FRET data IC50

{"mol": "CCn1c(-c2cnccc2COC)c2c3cc(ccc31)-c1cccc(c1)C[C@H](NC(=O)[C@H](C(C)C)N(C)C(=O)CCN=C=NCc1ccc(OC)cc1)C(=O)N1CCC[C@H](N1)C(=O)OCC(C)(C)C2", "IC50": "> 10 µM"}
{"mol": "CCn1c(-c2cccnc2[C@H](C)OC)c2c3cc(ccc31)-c1cc(cc(C(F)F)c1)C[C@H](NC(=O)[C@H](C1CCCC1)N1CC[C@]3(CCN(C(=O)[C@@H]4N[C@@H]4C4CC4)C3)C1)C(=O)N1CCC[C@H](N1)C(=O)OCC(C)(C)C2", "IC50": "1 to 10 µM"}
{"mol": "CCn1c(-c2cccnc2[C@H](C)OC)c2c3cc(ccc31)-c1cccc(c1)C[C@H](NC(=O)[C@H](C(C)C)N(C)C(=O)CCN=C=NCCOC)C(=O)N1CCC[C@H](N1)C(=O)OCC(C)(C)C2", "IC50": "1 to 10 µM"}

* * *

Catalogue of molecules with associated IC50
- test.target: KRAS G13C (Homo sapiens, UniProt P01116+P62937, G13C)
- Sequence (P01116 1-169 isoform P01116-2 G13C limits assumed): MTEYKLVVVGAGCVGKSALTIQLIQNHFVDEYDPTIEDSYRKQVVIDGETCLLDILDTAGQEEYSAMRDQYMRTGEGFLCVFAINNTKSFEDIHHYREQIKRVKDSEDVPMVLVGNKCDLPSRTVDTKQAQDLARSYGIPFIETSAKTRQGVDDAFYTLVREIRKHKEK
- Sequence (P62937 whole entry): as the sequence (P62937 whole entry) above
- assay.name: Ras-Raf disruption / FRET / MOA assay (BRAF RBD)
- Type: biochemical
- condition.notes: KRAS G13C FRET data IC50, Ras-Raf disruption, with Cyclophilin A
measured.endpoint: IC50

{"molecule": "CCn1c(-c2cccnc2[C@H](C)OC)c2c3cc(ccc31)-c1cc(O)cc(c1)C[C@H](NC(=O)[C@H](C(C)C)N(C)C(=O)CN(C)C(=O)[C@@H]1N[C@@H]1C1COC1)C(=O)N1CCC[C@H](N1)C(=O)OCC(C)(C)C2", "result": "10 to 100 nM"}
{"molecule": "CCn1c(-c2cccnc2[C@H](C)OC)c2c3cc(ccc31)-c1cc(O)cc(c1)C[C@H](NC(=O)[C@H](C(C)C)N(C)C(=O)CN(C)C(=O)[C@@H]1CN1CCCC#N)C(=O)N1CCC[C@H](N1)C(=O)OCC(C)(C)C2 (stereo partly shown)", "result": "10 to 100 nM"}
{"molecule": "CCn1c(-c2cccnc2[C@H](C)OC)c2c3cc(ccc31)-c1cc(O)cc(c1)C[C@H](NC(=O)[C@H](C1CCCC1)N(C)C(=O)CN(C)C(=O)[C@H]1[C@@H](C3CC3)N1CCCOC)C(=O)N1CCC[C@H](N1)C(=O)OCC(C)(C)C2 (stereo partly shown)", "result": "10 to 100 nM"}
{"molecule": "CCn1c(-c2cccnc2[C@H](C)OC)c2c3cc(ccc31)-c1cc(O)cc(c1)C[C@H](NC(=O)[C@H](C(C)C)N(C)C(=O)CN(C)C(=O)[C@]1(C)CN1)C(=O)N1CCC[C@H](N1)C(=O)OCC(C)(C)C2", "result": "< 10 nM"}

* * *

Catalogue of compounds with associated pIC50
- test.target: KRAS G12C (Homo sapiens, UniProt P01116+P62937, G12C)
- assay.name: Ras-Raf disruption / FRET / MOA assay (BRAF RBD)
- Type: biochemical
- condition.notes: Ras-Raf disruption, with Cyclophilin A; read-out: KRAS G12C FRET data IC50
- Sequence (P01116 1-169 isoform P01116-2 G12C limits assumed, one chain of several): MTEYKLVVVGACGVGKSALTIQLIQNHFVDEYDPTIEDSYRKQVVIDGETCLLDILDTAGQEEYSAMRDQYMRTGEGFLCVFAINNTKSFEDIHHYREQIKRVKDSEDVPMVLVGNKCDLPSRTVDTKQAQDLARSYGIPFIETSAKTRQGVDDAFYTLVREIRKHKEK
pIC50: −log10 of the molar value.
measured.endpoint: pIC50

{"compound": "CCn1c(-c2cccnc2[C@H](C)OC)c2c3cc(ccc31)-c1cc(O)cc(c1)C[C@H](NC(=O)[C@H](C(C)C)N(C)C(=O)c1nc(NC(=O)[C@H]3CN3)cs1)C(=O)N1CCC[C@H](N1)C(=O)OCC(C)(C)C2 (atropisomer, axis not shown) [Example 212]", "measured.endpoint": "pIC50", "result": "6.00 to 7.00"}
{"compound": "CCn1c(-c2cccnc2[C@H](C)OC)c2c3cc(ccc31)-c1cccc(c1)C[C@H](NC(=O)[C@H](C(C)C)N(C)C(=O)[C@H]1CC[C@H](N=C=NC34CC(C3)C4)C1)C(=O)N1CCC[C@H](N1)C(=O)OCC(C)(C)C2 [Example 123]", "measured.endpoint": "pIC50", "result": "6.00 to 7.00"}

* * *

- test.target: NRAS G12C (Homo sapiens, UniProt P01111+P62937, G12C)
- Sequence (P01111 whole entry G12C, one chain of several): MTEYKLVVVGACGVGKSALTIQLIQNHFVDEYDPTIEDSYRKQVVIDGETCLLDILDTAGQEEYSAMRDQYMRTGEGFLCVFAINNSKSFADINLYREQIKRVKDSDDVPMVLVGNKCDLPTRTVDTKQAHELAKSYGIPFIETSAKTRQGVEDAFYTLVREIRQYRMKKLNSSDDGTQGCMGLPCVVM
- assay.name: Disruption of BRAF RBD interaction with Ras (FRET / MOA assay, with Cyclophilin A)
- Type: biochemical
- condition.notes: NRAS G12C; read-out: NRAS G12C FRET data IC50
- Excerpt: This protocol may also be executed substituting other Ras proteins or nucleotides. The purpose of this biochemical assay was to measure the ability of test compounds to facilitate ternary complex formation between a nucleotide-loaded K-Ras isoform and Cyclophilin A; the resulting ternary complex disrupts binding to a BRAF^RBD construct, inhibiting K-Ras signaling through a RAF effector. Data is reported as IC50 values. […]
pIC50: −log10 of the molar value.
Catalogue of compounds with associated pIC50

{"compound": "CCn1c(-c2cc(N3CCN(C)CC3)cnc2[C@H](C)OC)c2c3cc(ccc31)-c1cc(O)cc(c1)C[C@H](NC(=O)[C@H](C(C)C)N(C)C(=O)[C@@H]1OCC[C@@H]1c1ccccc1)C(=O)N1CCC[C@H](N1)C(=O)OCC(C)(C)C2 (atropisomer, axis not shown) [Example A594]", "pIC50": "> 8.00"}
{"compound": "CCn1c(-c2cccnc2[C@H](C)OC)c2c3cc(ccc31)-c1cc(O)cc(c1)C[C@H](NC(=O)[C@H](C(C)C)N(C)C(=O)[C@H]1CCC[C@H]1N)C(=O)N1CCC[C@H](N1)C(=O)OCC(C)(C)C2 (atropisomer, axis not shown) [Example A131]", "pIC50": "7.00 to 8.00"}
{"compound": "C=CC(=O)N1CC2(C1)OCCN2C(=O)N(C)[C@H](C(=O)N[C@H]1Cc2nc(cs2)-c2ccc3c(c2)c(c(-c2cccnc2[C@H](C)OC)n3CC)CC(C)(C)COC(=O)C2CCCN(N2)C1=O)C(C)C (some centres unmarked) [Example A620]", "pIC50": "> 8.00"}
{"compound": "CCn1c(-c2cccnc2[C@H](C)OC)c2c3cc(ccc31)-c1cc(O)cc(c1)C[C@H](NC(=O)[C@H](C(C)C)N(C)C(=O)C1CC3CC1CN3)C(=O)N1CCC[C@H](N1)C(=O)OCC(C)(C)C2 (some centres unmarked) [Example A133]", "pIC50": "6.00 to 7.00"}
{"compound": "C=CC(=O)N1CC[C@H](C(=O)N(C)[C@H](C(=O)N[C@H]2Cc3cc(O)cc(c3)-c3ccc4c(c3)c(c(-c3cccnc3)n4C3CC3)CC(C)(C)COC(=O)[C@@H]3CCCN(N3)C2=O)C(C)C)C1 [Example A160]", "pIC50": "5.00 to 6.00"}
{"compound": "CCn1c(-c2cccnc2[C@H](C)OC)c2c3cc(ccc31)-c1cc(O)cc(c1)C[C@H](NC(=O)[C@@H](NC(C)=O)C(C)(C)OC)C(=O)N1CCC[C@H](N1)C(=O)OCC(C)(C)C2 (racemic) [Example A172]", "pIC50": "< 5.00"}
{"compound": "CC#CC(=O)N1CC[C@H](C(=O)N(C)[C@H](C(=O)N[C@H]2Cc3nc(cs3)-c3ccc4c(c3)c(c(-c3cccnc3[C@H](C)OC)n4CC)CC(C)(C)COC(=O)[C@@H]3CCCN(N3)C2=O)C(C)C)C1 [Example A168]", "pIC50": "5.00 to 6.00"}
{"compound": "CCn1c(-c2cccnc2[C@H](C)OC)c2c3cc(ccc31)-c1csc(n1)C[C@H](NC(=O)[C@H](C(C)C)N(C)C(=O)N1CCN(C(=O)C3(N(C)C)CC3)CC1)C(=O)N1CCC[C@H](N1)C(=O)OCC(C)(C)C2 (atropisomer, axis not shown) [Example A443]", "pIC50": "7.00 to 8.00"}

* * *

- test.target: KRAS G12C (Homo sapiens, UniProt P01116+P62937, G12C)
- assay.name: Disruption of BRAF RBD interaction with Ras (FRET / MOA assay, with Cyclophilin A)
- Assay type: biochemical
- condition.notes: KRAS G12C; read-out: KRAS G12C FRET data IC50
- Text: This protocol may also be executed substituting other Ras proteins or nucleotides. The purpose of this biochemical assay was to measure the ability of test compounds to facilitate ternary complex formation between a nucleotide-loaded K-Ras isoform and Cyclophilin A; the resulting ternary complex disrupts binding to a BRAF^RBD construct, inhibiting K-Ras signaling through a RAF effector. Data is reported as IC50 values. […]
- Sequence (P01116 1-169 isoform P01116-2 G12C, one chain of several): as the sequence (P01116 1-169 isoform P01116-2 G12C limits assumed, one chain of several) above
pIC50: −log10 of the molar value.

{"compound": "C=CS(=O)(=O)N1CC[C@H](C(=O)N(C)[C@H](C(=O)N[C@H]2Cc3nc(cs3)-c3ccc4c(c3)c(c(-c3cncnc3)n4CC)CC(C)(C)COC(=O)[C@@H]3CCCN(N3)C2=O)C(C)C)C1 [Example A170]", "pIC50": "5.00 to 6.00"}
{"compound": "CCn1c(-c2cccnc2[C@H](C)OC)c2c3cc(ccc31)-c1cccc(c1)C[C@H](NC(=O)[C@@H](COC1CN(C(=O)C#C[C@@H]3COCCN3C)C1)C(C)C)C(=O)N1CCC[C@H](N1)C(=O)OCC(C)(C)C2 (atropisomer, axis not shown) [Example A648]", "pIC50": "6.00 to 7.00"}
{"compound": "CCn1c(-c2cccnc2[C@H](C)OC)c2c3cc(ccc31)-c1cc(O)cc(c1)C[C@H](NC(=O)[C@H](C(C)C)N(C)C(=O)c1nc(NC(=O)/C=C/CN(C)C)cs1)C(=O)N1CCC[C@H](N1)C(=O)OCC(C)(C)C2 [Example A258]", "pIC50": "6.00 to 7.00"}
{"compound": "CCn1c(-c2cccnc2[C@H](C)OC)c2c3cc(ccc31)-c1csc(n1)C[C@H](NC(=O)[C@H](C(C)C)N(C)C(=O)N(C)C1CN(C(=O)/C=C/C(C)(C)O)C1)C(=O)N1CCC[C@H](N1)C(=O)OCC(C)(C)C2 (atropisomer, axis not shown) [Example A350]", "pIC50": "7.00 to 8.00"}
